Values compiled from the supplement of paper PMC3545927.

systemUnderTest: furin, P09958;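 note: purified furin at 1:10 enzyme:substrate in 50 mM HEPES pH 7.5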
Sequence (P09958 whole entry): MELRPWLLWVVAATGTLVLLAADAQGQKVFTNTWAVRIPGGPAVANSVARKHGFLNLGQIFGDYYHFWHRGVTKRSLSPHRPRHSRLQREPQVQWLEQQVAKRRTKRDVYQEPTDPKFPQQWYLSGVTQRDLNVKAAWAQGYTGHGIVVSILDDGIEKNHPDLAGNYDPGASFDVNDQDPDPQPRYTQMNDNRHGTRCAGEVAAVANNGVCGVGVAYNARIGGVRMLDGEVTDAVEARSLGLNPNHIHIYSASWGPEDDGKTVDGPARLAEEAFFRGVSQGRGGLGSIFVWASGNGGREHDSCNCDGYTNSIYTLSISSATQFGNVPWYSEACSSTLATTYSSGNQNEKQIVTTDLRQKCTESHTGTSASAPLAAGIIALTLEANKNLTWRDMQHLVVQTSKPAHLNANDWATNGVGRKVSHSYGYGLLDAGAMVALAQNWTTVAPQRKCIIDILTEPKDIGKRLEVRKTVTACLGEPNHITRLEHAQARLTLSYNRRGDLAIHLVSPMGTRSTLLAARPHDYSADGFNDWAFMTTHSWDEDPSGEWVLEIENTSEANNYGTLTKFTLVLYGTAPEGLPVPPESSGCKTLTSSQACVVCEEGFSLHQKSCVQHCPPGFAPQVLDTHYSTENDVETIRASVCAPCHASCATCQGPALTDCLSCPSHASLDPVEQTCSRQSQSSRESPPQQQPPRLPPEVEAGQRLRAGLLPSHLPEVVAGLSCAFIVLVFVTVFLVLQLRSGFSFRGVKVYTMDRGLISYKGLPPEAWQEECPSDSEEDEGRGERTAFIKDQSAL
measurementDescription: furin cleavage Z-score vs untreated control; higher = more cleavage, active = 3.5 or more, inactive = 1 or less, 8 variable residues between constant flanks
appliedConditions: 7.5 min
Some of the results follow. No count for the full screen is at hand.
reportedEndpoint: furin cleavage Z-score

• CARKRRSIRYAGNASASA [FS-2975] = 8.7
• CANKRNTNRRAGNASASA [HC166] = 0.476
• CAPPDSDAESAGNASASA [HC1349] = -1.81
• CARKRREAESAGNASASA [FS-2972] = 12
• CAQHYRKKRWAGNASASA [FS-370] = 7.9
• CATDALMTGYAGNASASA [HC879] = 0.343
• CARLRRMNGNAGNASASA [FS-2994] = -0.28
• CARHYRPTGYAGNASASA [FS-2682] = -1.08
• CAARLIVFPDAGNASASA [HC1449] = -1.5
• CARKRRGTGYAGNASASA [FS-2565] = 9.5
• CAGVNYATGNAGNASASA [HC241] = 1.48
• CALIDRFKRWAGNASASA [FS-270] = 8.5
• CALCGRYKRWAGNASASA [FS-49] = 9.62
• CAWREVPCHRAGNASASA [HC2428] = 0.368
• CASVCGPVYCAGNASASA [HC411] = -0.739
